Provenance of the data: paper PMC3307390

Hi there, I'd appreciate the recorded pIC50 for every entry that follows.
# measured target: HLA-DQ DQA1*0501/DQB1*0201 (human (endogenous in EBV-transformed cell line VAVY))
# test protocol: radioligand binding
For clarity, pIC50 is expressed as the negative log10 of concentration in mol/L.

Q. // pIC50 lookup, key: KPVSKMRMATPLLMQALP [Homo sapiens Ii chain peptide …]
A. 7.52

Q. // pIC50 lookup, key: TEDQAMEDIKQMEAESIS [Bos taurus a-S1 casein peptide …]
A. 6.36
